Test: Thermal melting profiles (Tm) of β-gal siRNA duplexes
Assay type: physicochemical
Conditions: 2nd (duplicate) experiment

{"SUBSTANCE": "III: β-gal siRNA, rT incorporated in the anti-sense strand only (SEQ ID NO:5/6) (chain 1 CNACACAAANCAGCGANNNTT; chain 2 AAANCGCNGANNNGNGNAGTT; RNA at 1, 2, 3, 4, 5, 6, 7, 8, 9, 10, 11, 12, 13, 14, 15, 16, 17, 18, 19, other sugars, backbone and the base at N not given here; ribothymidine replaces uracil in antisense strand only)", "Avg. Tm from 2nd Exp. / °C": 69.8}

----------
Assay: Thermal melting profiles (Tm) of β-gal siRNA duplexes
Format: physicochemical
Details: Up profile, 1st experiment
Experimental: The purpose of this experiment was to determine the effect of incorporating ribothymidines in a double stranded RNA molecule in place of uridines on the melting temperature (TM) of the siRNA molecule. […] The stock solutions of single stranded oligonucleotides were prepared by dissolving the selected sequences in 400 μL 10 mM buffer phosphate pH 7.0 containing 0.1 M NaCl and 0.1 mM EDTA and diluted (1 μL to 200 μL) with water and absorbencies (A260) were measured and the contents were calculated. […]

{"SUBSTANCE": "II: β-gal siRNA, all uracils in both strands changed to ribothymidine (SEQ ID NO:1/2) (chain 1 CNACACAAANCAGCGANNNTT; chain 2 AAANCGCNGANNNGNGNAGTT; RNA at 1, 2, 3, 4, 5, 6, 7, 8, 9, 10, 11, 12, 13, 14, 15, 16, 17, 18, 19, other sugars, backbone and the base at N not given here; all uracils replaced by ribothymidine in both strands)", "Tm [°C]": 71.9}
{"SUBSTANCE": "III: β-gal siRNA, rT incorporated in the anti-sense strand only (SEQ ID NO:5/6) (chain 1 CNACACAAANCAGCGANNNTT; chain 2 AAANCGCNGANNNGNGNAGTT; RNA at 1, 2, 3, 4, 5, 6, 7, 8, 9, 10, 11, 12, 13, 14, 15, 16, 17, 18, 19, other sugars, backbone and the base at N not given here; ribothymidine replaces uracil in antisense strand only)", "Tm [°C]": 71.9}
{"SUBSTANCE": "IV: β-gal siRNA, rT incorporated in the sense strand only (SEQ ID NO:3/4) (chain 1 CTACACAAATCAGCGATTTTT; chain 2 AAAUCGCUGAUUUGUGUAGTT; chain 1: RNA at 2, 10, 17, 18, 19, other sugars and backbone not given here; chain 2: RNA at 4, 8, 11, 12, 13, 15, 17, other sugars and backbone not given here; positions 1-19 ribonucleotides, further chemistry not fully specified)", "Tm [°C]": 67.8}
{"SUBSTANCE": "I (WT): unmodified β-gal siRNA: CUACACAAAUCAGCGAUUU TT / TT GAUGUGUUUAGUCGCUAAA (sense CUACACAAAUCAGCGAUUUTT; antisense TTGAUGUGUUUAGUCGCUAAA; chemistry not fully specified; one strand is listed 3' to 5') [reference compound]", "Tm [°C]": 64.3}

----------
Experiment: Thermal melting profiles (Tm) of β-gal siRNA duplexes
Assay type: physicochemical
Settings: 1st experiment
Experimental: The purpose of this experiment was to determine the effect of incorporating ribothymidines in a double stranded RNA molecule in place of uridines on the melting temperature (TM) of the siRNA molecule. […] The stock solutions of single stranded oligonucleotides were prepared by dissolving the selected sequences in 400 μL 10 mM buffer phosphate pH 7.0 containing 0.1 M NaCl and 0.1 mM EDTA and diluted (1 μL to 200 μL) with water and absorbencies (A260) were measured and the contents were calculated. […]
READOUT_LABEL: Avg. Tm from 1st Exp. (°C)

{"SUBSTANCE": "IV: β-gal siRNA, rT incorporated in the sense strand only (SEQ ID NO:3/4) (chain 1 CTACACAAATCAGCGATTTTT; chain 2 AAAUCGCUGAUUUGUGUAGTT; chain 1: RNA at 2, 10, 17, 18, 19, other sugars and backbone not given here; chain 2: RNA at 4, 8, 11, 12, 13, 15, 17, other sugars and backbone not given here; positions 1-19 ribonucleotides, further chemistry not fully specified)", "READOUT_LABEL": "Avg. Tm from 1st Exp.", "OBSERVED_MEASUREMENT": 67.8}
{"SUBSTANCE": "II: β-gal siRNA, all uracils in both strands changed to ribothymidine (SEQ ID NO:1/2) (chain 1 CNACACAAANCAGCGANNNTT; chain 2 AAANCGCNGANNNGNGNAGTT; RNA at 1, 2, 3, 4, 5, 6, 7, 8, 9, 10, 11, 12, 13, 14, 15, 16, 17, 18, 19, other sugars, backbone and the base at N not given here; all uracils replaced by ribothymidine in both strands)", "READOUT_LABEL": "Avg. Tm from 1st Exp.", "OBSERVED_MEASUREMENT": 72.35}
{"SUBSTANCE": "III: β-gal siRNA, rT incorporated in the anti-sense strand only (SEQ ID NO:5/6) (chain 1 CNACACAAANCAGCGANNNTT; chain 2 AAANCGCNGANNNGNGNAGTT; RNA at 1, 2, 3, 4, 5, 6, 7, 8, 9, 10, 11, 12, 13, 14, 15, 16, 17, 18, 19, other sugars, backbone and the base at N not given here; ribothymidine replaces uracil in antisense strand only)", "READOUT_LABEL": "Avg. Tm from 1st Exp.", "OBSERVED_MEASUREMENT": 72.4}
{"SUBSTANCE": "I (WT): unmodified β-gal siRNA: CUACACAAAUCAGCGAUUU TT / TT GAUGUGUUUAGUCGCUAAA (sense CUACACAAAUCAGCGAUUUTT; antisense TTGAUGUGUUUAGUCGCUAAA; chemistry not fully specified; one strand is listed 3' to 5') [reference compound]", "READOUT_LABEL": "Avg. Tm from 1st Exp.", "OBSERVED_MEASUREMENT": 64.9}
